B1: LINE1-full (parent)
chain: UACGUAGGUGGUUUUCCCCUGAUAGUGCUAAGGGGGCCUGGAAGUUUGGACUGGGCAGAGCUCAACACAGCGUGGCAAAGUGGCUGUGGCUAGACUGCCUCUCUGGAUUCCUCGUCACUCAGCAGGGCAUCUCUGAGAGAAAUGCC

variants of: B1; assay: self-cleavage, relative activity (ratio to wild type); higher = more cleavage; in vitro, sequencing; the parent is a self-cleaving ribozyme
Grouping key: self-cleavage. Bins: bottom bin = under 0.2, middle bin = from 0.2 up to 0.7, top bin = 0.7 and over

query: Which category fits this record: C18U C56U
result: middle bin

Origin of the recorded values: the RNAGym collection of RNA variant scans (doi:10.7554/elife.90254)
